assayed.system: T1, human CD33 Fc fusion protein (human, UniProt P20138 18-259)
T1 construct: also called hCD33-Fc; human CD33/Fc chimera (R&D Systems)
T1 sequence (P20138 18-259 limits assumed): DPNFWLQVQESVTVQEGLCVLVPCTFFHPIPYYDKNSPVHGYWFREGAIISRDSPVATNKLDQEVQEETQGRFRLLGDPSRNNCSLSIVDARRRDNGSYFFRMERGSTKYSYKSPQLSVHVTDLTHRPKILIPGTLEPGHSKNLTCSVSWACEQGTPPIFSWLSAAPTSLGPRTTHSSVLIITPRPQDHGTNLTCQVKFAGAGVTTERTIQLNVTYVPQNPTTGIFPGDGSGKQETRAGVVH
procedure.details: RBC adhesion to plate-bound CD33-Fc; antibody 1.0 ug/ml;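 note: red blood cells adhering to plate-coated CD33-Fc after 1 h antibody pretreatment, then 1 h at room temperature, bound cells read as peroxidase activity after lysis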
Recorded Percent RBC Binding to CD33 for the following binders

[
  {
    "binder": "C-64 (antibody, V domains shown, human IgG1) VH: QVQLVQSGAEVKKPGSSVKVSCKASGGTFSSLAISWVRQAPGQGLEWMGGIIPIFGTANYAQKFQGRVTITADESTSTAYMELSSLRSEDTAVYYCARGTFYSDELFDYWGQGTLVTVSS VL: DIQMTQSPSSVSASVGDRVTITCRASQGISSWLAWYQQKPGKAPKLLIYAASSLQSGVPSRFSGSGSGTDFTLTISSLQPEDFATYYCQQENSYPLTFGGGTKVEIK",
    "Percent RBC Binding to CD33 [%]": 90.4
  },
  {
    "binder": "C-28 (antibody, V domains shown, human IgG1) VH: EVQLVESGGGLVQPGGSLRLSCAASGFTFSSYWMSWVRQAPGKGLEWVANINQDGSEKYYVDSVKGRFTISRDNAKNSLYLQMNSLRAEDTAVYYCAREGRRTMNAFDIWGQGTMVTVSS VL: DIQMTQSPSSLSASVGDRVTITCRASQSISSYLNWYQQKPGKAPKLLIYGASSLQSGVPSRFSGSGSGTDFTLTISSLQPEDFATYYCQQGYDVPITFGGGTKVEIK",
    "Percent RBC Binding to CD33 [%]": 9.65
  }
]

This collection of values is drawn from patent US20220281976A1.
